target_desc: Serine/threonine-protein kinase Nek7 (Homo sapiens) (UniProt Q8TDX7);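 further: reported values are mean inhibition of NEK7 from the GSK PKIS kinase screening panel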
Sequence (Q8TDX7 whole entry, looked up): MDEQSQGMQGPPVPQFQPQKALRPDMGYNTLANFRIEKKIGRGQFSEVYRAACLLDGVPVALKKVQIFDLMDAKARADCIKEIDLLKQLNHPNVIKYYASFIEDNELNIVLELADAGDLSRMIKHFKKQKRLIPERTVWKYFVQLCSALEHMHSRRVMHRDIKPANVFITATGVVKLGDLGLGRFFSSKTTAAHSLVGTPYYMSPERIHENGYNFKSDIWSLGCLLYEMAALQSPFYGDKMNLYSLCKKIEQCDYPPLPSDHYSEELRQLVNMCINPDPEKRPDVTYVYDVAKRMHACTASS
conditions: at 1 µM

{"query_smiles": "COc1cc(Nc2ncc3c(C)nc(-c4cccc(C(F)(F)F)c4)n3n2)cc(OC)c1OC", "unit_info": "%", "inhibition": 10.5}
{"query_smiles": "O=C(Nc1n[nH]c2cc(-c3ccccc3)ccc12)C1CC1", "unit_info": "%", "inhibition": 3.1}
{"query_smiles": "COc1cccc(/C=N/Nc2ncnc3c2cnn3-c2cccc(OC)c2)c1", "unit_info": "%", "inhibition": 8.57}
{"query_smiles": "CCc1nccc2c1nc(-c1nonc1N)n2CC", "unit_info": "%", "inhibition": 1.72}
{"query_smiles": "CS(=O)(=O)CCNCc1cc(-c2cc3c(Nc4ccc(OCc5cccc(F)c5)c(Cl)c4)ncnc3s2)cs1", "unit_info": "%", "inhibition": 8.5}
{"query_smiles": "NS(=O)(=O)c1ccc(N/N=C2\\C(=O)Nc3ccc(C(=O)NCCCn4ccnc4)cc32)cc1", "unit_info": "%", "inhibition": 5.01}
{"query_smiles": "NC(=O)c1cc(-c2ccc(F)cc2)cc(-c2ccncc2)c1N", "unit_info": "%", "inhibition": 4.73}
{"query_smiles": "CCS(=O)(=O)c1ccc(OC)c(Nc2ncc(-c3ccccc3Cl)o2)c1", "unit_info": "%", "inhibition": 2.67}
{"query_smiles": "COc1cc2ncn(-c3cc(OCCc4ccccc4)c(C(N)=O)s3)c2cc1OC", "unit_info": "%", "inhibition": 2.45}
{"query_smiles": "Cc1ccc(NC(=O)c2ccoc2)cc1-c1ccc(C(=O)NCC2CC2)cc1", "unit_info": "%", "inhibition": 1.16}
{"query_smiles": "O=C(NCC1CC1)c1ccc(-c2cccc(C(=O)NC3CC3)c2)cc1", "unit_info": "%", "inhibition": 3.21}
{"query_smiles": "Fc1ccc(-c2ncn(CCCN3CCOCC3)c2-c2ccncc2)cc1", "unit_info": "%", "inhibition": 1.74}
{"query_smiles": "O=C1Nc2ccccc2/C1=C/Nc1ccc(-n2cncn2)cc1", "unit_info": "%", "inhibition": 4.4}
{"query_smiles": "c1ccc(-c2n[nH]cc2-c2ccnc(-c3ccc(OCCN4CCOCC4)cc3)c2)nc1", "unit_info": "%", "inhibition": -3.67}
{"query_smiles": "CCc1ccc(Oc2nccc(-c3c(-c4ccc(F)cc4)ncn3C3CCNCC3)n2)cc1", "unit_info": "%", "inhibition": 5.98}
{"query_smiles": "C#Cc1cccc(Nc2ncnc3ccc(OCCCCNCCS(C)(=O)=O)cc23)c1", "unit_info": "%", "inhibition": 3.44}
{"query_smiles": "COc1cc(Nc2ncc(-c3ccccc3)o2)cc(OC)c1OC", "unit_info": "%", "inhibition": 3.67}
{"query_smiles": "COC(=O)Nc1nc2ccc(Sc3ccc(NC(=O)Nc4cc(C(F)(F)F)ccc4F)cc3)cc2[nH]1", "unit_info": "%", "inhibition": -3.05}
{"query_smiles": "CCC(=O)Nc1ccc(C)c(-c2ccc(C(=O)NCC3CC3)cc2)c1", "unit_info": "%", "inhibition": 8.32}
{"query_smiles": "CNC(=O)c1cncc(/C=C/c2c(C)cccc2C)c1", "unit_info": "%", "inhibition": 0.6}
{"query_smiles": "C[C@@H](Oc1cc(-n2cnc3ccc(OCC4CCN(C)CC4)cc32)sc1C(N)=O)c1ccccc1Cl", "unit_info": "%", "inhibition": 9.78}

---

The entries below come with measured inhibition values attached.
target_desc: Ephrin type-A receptor 3 (Homo sapiens) (UniProt P29320);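 further: values are mean inhibition of EPHA3, from the GSK PKIS dataset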
Sequence (whole entry): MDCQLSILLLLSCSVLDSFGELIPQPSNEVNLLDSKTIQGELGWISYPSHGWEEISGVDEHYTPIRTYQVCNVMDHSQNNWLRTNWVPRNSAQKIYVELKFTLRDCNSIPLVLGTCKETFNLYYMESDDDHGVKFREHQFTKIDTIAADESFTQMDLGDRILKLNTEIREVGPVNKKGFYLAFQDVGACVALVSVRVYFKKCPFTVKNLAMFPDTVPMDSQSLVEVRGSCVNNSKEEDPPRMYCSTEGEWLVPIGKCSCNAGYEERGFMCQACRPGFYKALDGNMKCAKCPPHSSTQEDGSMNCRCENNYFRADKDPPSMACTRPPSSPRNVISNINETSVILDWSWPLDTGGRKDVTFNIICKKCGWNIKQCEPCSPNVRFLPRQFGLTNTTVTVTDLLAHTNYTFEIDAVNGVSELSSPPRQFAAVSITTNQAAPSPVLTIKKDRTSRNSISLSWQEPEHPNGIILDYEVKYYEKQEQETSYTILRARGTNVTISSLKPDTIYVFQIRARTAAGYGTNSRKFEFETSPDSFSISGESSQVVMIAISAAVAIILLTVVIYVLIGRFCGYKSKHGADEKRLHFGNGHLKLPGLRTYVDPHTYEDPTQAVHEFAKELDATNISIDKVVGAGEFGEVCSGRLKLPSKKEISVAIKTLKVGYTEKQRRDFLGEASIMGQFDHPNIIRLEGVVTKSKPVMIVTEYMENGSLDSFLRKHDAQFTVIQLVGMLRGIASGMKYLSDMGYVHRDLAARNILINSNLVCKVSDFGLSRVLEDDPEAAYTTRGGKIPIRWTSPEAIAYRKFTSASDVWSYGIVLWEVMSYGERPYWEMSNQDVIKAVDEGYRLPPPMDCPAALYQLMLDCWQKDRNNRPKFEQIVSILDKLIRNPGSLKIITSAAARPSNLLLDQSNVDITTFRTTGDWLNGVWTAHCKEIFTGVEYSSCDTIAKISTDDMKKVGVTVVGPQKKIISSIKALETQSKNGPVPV
conditions: at 0.1 µM

{"query_smiles": "COc1cccc(-n2cnc3c(N/N=C/c4ccncc4)ncnc32)c1", "target_desc": "Ephrin type-A receptor 3 (Homo sapiens) (UniProt P29320)", "inhibition [%]": -3.39}
{"query_smiles": "CCC(=O)Nc1ccc(C)c(-c2ccc(C(=O)NCC3CC3)cc2)c1", "target_desc": "Ephrin type-A receptor 3 (Homo sapiens) (UniProt P29320)", "inhibition [%]": 1.95}
{"query_smiles": "NC(=O)c1cc(-c2ccc(F)cc2)cc(-c2ccncc2)c1N", "target_desc": "Ephrin type-A receptor 3 (Homo sapiens) (UniProt P29320)", "inhibition [%]": 4.53}
{"query_smiles": "O=C1Nc2ccc(I)cc2C1=Cc1cc(Br)c(O)c(Br)c1", "target_desc": "Ephrin type-A receptor 3 (Homo sapiens) (UniProt P29320)", "inhibition [%]": 1.79}
{"query_smiles": "O=C(Nc1n[nH]c2cc(-c3ccccc3)ccc12)C1CC1", "target_desc": "Ephrin type-A receptor 3 (Homo sapiens) (UniProt P29320)", "inhibition [%]": 5.17}
{"query_smiles": "C/C(Nc1ccc(S(N)(=O)=O)cc1)=C1/C(=O)Nc2ccccc21", "target_desc": "Ephrin type-A receptor 3 (Homo sapiens) (UniProt P29320)", "inhibition [%]": -8.6}
{"query_smiles": "COc1cc2ncn(-c3cc(OCCc4ccccc4)c(C(N)=O)s3)c2cc1OC", "target_desc": "Ephrin type-A receptor 3 (Homo sapiens) (UniProt P29320)", "inhibition [%]": 3.06}
{"query_smiles": "Fc1ccc(-c2ncn(CCCN3CCOCC3)c2-c2ccncc2)cc1", "target_desc": "Ephrin type-A receptor 3 (Homo sapiens) (UniProt P29320)", "inhibition [%]": 1.04}
{"query_smiles": "Cc1ccc(NC(=O)c2ccoc2)cc1-c1ccc(C(=O)NCC2CC2)cc1", "target_desc": "Ephrin type-A receptor 3 (Homo sapiens) (UniProt P29320)", "inhibition [%]": 1.99}
{"query_smiles": "CCc1cccc(CC)c1/C=C/c1cncc(C(=O)NC)c1", "target_desc": "Ephrin type-A receptor 3 (Homo sapiens) (UniProt P29320)", "inhibition [%]": 2.96}
{"query_smiles": "COC(=O)Nc1nc2ccc(Sc3ccc(NC(=O)Nc4cc(C(F)(F)F)ccc4F)cc3)cc2[nH]1", "target_desc": "Ephrin type-A receptor 3 (Homo sapiens) (UniProt P29320)", "inhibition [%]": 9.91}

---

Test system: Tyrosine-protein kinase ABL1 (Homo sapiens), P00519 [E255K]
Sequence (P00519 whole entry E255K): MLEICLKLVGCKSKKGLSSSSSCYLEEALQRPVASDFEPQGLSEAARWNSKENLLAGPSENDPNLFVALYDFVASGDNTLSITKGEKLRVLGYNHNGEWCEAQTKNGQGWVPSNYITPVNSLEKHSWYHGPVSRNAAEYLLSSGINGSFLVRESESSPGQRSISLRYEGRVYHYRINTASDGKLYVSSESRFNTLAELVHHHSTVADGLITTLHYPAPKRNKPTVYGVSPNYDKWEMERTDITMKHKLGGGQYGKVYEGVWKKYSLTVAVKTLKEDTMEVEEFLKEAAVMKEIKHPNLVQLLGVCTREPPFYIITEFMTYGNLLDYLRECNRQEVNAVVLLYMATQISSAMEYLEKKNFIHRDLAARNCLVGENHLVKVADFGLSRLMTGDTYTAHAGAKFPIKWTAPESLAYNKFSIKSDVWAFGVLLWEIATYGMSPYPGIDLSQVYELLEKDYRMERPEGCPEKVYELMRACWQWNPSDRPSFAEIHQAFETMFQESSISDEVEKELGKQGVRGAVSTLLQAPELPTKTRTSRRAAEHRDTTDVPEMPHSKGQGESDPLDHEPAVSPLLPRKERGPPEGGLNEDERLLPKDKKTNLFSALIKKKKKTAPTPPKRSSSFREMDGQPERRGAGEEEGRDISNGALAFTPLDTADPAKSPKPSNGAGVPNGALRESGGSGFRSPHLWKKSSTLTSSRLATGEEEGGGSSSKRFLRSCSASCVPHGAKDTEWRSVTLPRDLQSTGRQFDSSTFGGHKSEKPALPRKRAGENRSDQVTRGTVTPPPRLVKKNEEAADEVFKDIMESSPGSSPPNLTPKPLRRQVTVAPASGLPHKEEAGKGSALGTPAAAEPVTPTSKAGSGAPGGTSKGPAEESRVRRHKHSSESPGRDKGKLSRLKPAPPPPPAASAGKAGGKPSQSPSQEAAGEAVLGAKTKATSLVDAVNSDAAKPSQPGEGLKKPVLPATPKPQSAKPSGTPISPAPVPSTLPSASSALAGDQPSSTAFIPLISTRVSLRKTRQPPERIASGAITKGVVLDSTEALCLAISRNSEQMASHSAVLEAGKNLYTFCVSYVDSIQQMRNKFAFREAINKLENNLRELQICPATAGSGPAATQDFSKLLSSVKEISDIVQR
conditions: at 0.1 µM
assay_metric: inhibition (%)

{"query_smiles": "Cc1ccc(NC(=O)c2ccoc2)cc1-c1ccc(C(=O)NCC2CC2)cc1", "readout_value": 1.13}
{"query_smiles": "c1ccc(Oc2ccc(Nc3ncc(-c4ccccc4)o3)cc2)cc1", "readout_value": 1.57}
{"query_smiles": "FC(F)(F)c1cccc(Nc2nccc(-c3cnn4nc(-c5ccccc5)ccc34)n2)c1", "readout_value": 0.92}
{"query_smiles": "COc1ccc2cc(-c3c(-c4ccncc4)nc(-c4ccc(S(C)(=O)=O)cc4C)n3C)ccc2c1", "readout_value": 2.69}
{"query_smiles": "NS(=O)(=O)c1ccc(Nc2cc(-c3ccc(O)c(F)c3)n[nH]2)cc1", "readout_value": 1.72}
{"query_smiles": "Fc1ccc(-c2nc3n(c2-c2ccncc2)CCS3)cc1", "readout_value": 1.52}
{"query_smiles": "O=C1NC(=O)C(c2cccc(Cl)c2)=C1Nc1ccc(Cl)c(C(=O)O)c1", "readout_value": 1.78}
{"query_smiles": "O=C(Nc1ccc(Oc2ccc3[nH]c(NC(=O)c4ccccc4)nc3c2)cc1)Nc1cc(C(F)(F)F)ccc1F", "readout_value": 3.28}
{"query_smiles": "C/C(Nc1ccc(S(N)(=O)=O)cc1)=C1/C(=O)Nc2ccccc21", "readout_value": -1.03}
{"query_smiles": "COc1ccc(C2=C(N3CCc4ccccc43)C(=O)NC2=O)cc1", "readout_value": 3.46}
